// provenance: the supplement of paper PMC10567573

experiment: protein stability index of a GFP-peptide fusion (GPS, HEK-293T) (PSI 1-6); higher = more stable;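 also: 24-mer peptide tiles fused after GFP, lentivirally expressed, FACS-sorted into six equal bins by GFP/DsRed ratio, decoded by Illumina sequencing, PSI is the read-weighted mean bin number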
condition summary: treatment: DMSO; c terminus: a fixed tail appended
Each record's class is read off its protein stability index using these ranges: bottom = under 3, middle = from 3 up to 4, top = 4 and over

Sort into band: DDPSLRKTHSSPALSQGHVTGSKT [PSD2]
top

Sort into band: SGDCDQRFRFPSPILKVQYHPRDQ [RBBP5]
middle

Sort into band: AEGNNQAPGEEEEEEEEATNTHPP [CHGA]
top

Sort into band: LELGSYIKDLSVVHSDLSSIVILD [CTDNEP1]
bottom

Sort into band: GYSIKVFDFERSGLQHAPEPDAAD [SMAD6]
top

Sort into band: SRAPCKVQGLEGIKMAMVACGDAF [NEK8]
bottom

Sort into band: GHNFCRGCVSRCWEVQVSPTCPVC [TRIM35]
middle

Sort into band: TFDIDPMVVTDCIQVDPPERPPPP [MCOLN1]
top

Sort into band: RLRKHQHVGDFARDLAARWKKLVL [ELOA2]
bottom

Sort into band: SKGMSIFLDILRRADKNDDGKLSF [NECAB1]
bottom

Sort into band: RHLRSAHRRELESSGAGSSPPAAP [ZBED3]
top

Sort into band: RSVRRERLKEMKLLRDQFVKALED [FAM9B]
middle

Sort into band: PVIPAAALAGYTGSGPIQLWQFLL [ETS1]
bottom

Sort into band: RKHALERFEQEAVAVDSNLRVREL [CCDC89]
top

Sort into band: PLCMLLLIDHLALRARNYEYLIRL [TCF25]
middle

Sort into band: QQAVEQIAKAEETHSSLSQELQAR [CCDC89]
top

Sort into band: DTRLRYSFFVPRPTPSTPRPTPQD [ADAMTS4]
middle

Sort into band: QGYTINVPWNQVGMRDADYIAAFL [HDAC6]
bottom

Sort into band: QKTSGQHMIQGAGSLEKALPIIQS [DLC1]
middle

Sort into band: LKAFNMFVRLFVDENLDRMVPISK [NOL4L]
bottom

Sort into band: AEDYLTWKEWGFTGVQEVLSALLR [SPAG8]
bottom

Sort into band: LFMKKNHEEEVKGLQAQIASSGLT [KRT18]
middle

Sort into band: MSREPTPPLPGDMSTGPIAESWCY [SPOPL]
middle

Sort into band: APMVAGALARLGTVTVISPLELMR [SLC25A39]
bottom

Sort into band: IEDDIRPEKQKRKPGLRRSPIKKV [MYBL2]
top

Sort into band: IEELCQKREELCRQIQEEEDEKQR [SSNA1]
top
